- testSummary: gradient 5% acetonitrile 3 min, to 50% in 2 min, to 85% in 15 min, held 3 min, 100 µL/min
- measurementParameters: column: Zorbax Extend-C18 2.1 x 50 mm; eluents: water / acetonitrile, 0.1% formic acid
assayEndpoint: RP-LC retention time (s)

1. Cc1ccc(NC(=O)N2CCC(N(C(=O)C3CC3)C3CCOCC3)CC2)c(C)c1
2. Cc1cc(-c2c(C)sc(C)c2S(=O)(=O)N2CC=C(c3ccccc3)CC2)n[nH]1
Qu. // select label with min value of measured RP-LC retention time from [ 1 , 2 ] Refer to your chosen entry by its label in the reply.
Ans. 1
(1: 722 s, 2: 1040 s)

----------
- testSummary: gradient 5% acetonitrile 3 min, to 50% in 2 min, to 85% in 15 min, held 3 min, 100 µL/min
- measurementParameters: column: Zorbax Extend-C18 2.1 x 50 mm; eluents: water / acetonitrile, 0.1% formic acid
assayEndpoint: RP-LC retention time (s)

compound=Cc1ccc2c(Nc3ccc(C)c(C)c3)c(C(=O)N3CCSCC3)cnc2n1 quantitativeresult=644
compound=CCn1cc(C(=O)Nc2ccc(C)cc2)c(S(=O)(=O)N2CCSCC2)n1 quantitativeresult=887
compound=CC(C)c1nnc(-c2ccc(S(=O)(=O)NC3CCCCCC3)o2)o1 quantitativeresult=985
compound="Cc1ccc(S(=O)(=O)N2C(=O)CCC2C(=O)N2CCc3ccccc32)cc1C (centres undefined)" quantitativeresult=1000
compound=CCc1nn2c(=O)cc(CSc3nnc(-c4cccc(C)c4)o3)nc2s1 quantitativeresult=800
compound=O=C(CCc1nc2sc3c(c2c(=O)[nH]1)CCCCC3)N1CCN(C2CCCCC2)CC1 quantitativeresult=610
compound=O=C(Cc1cccs1)Nc1ccc(-c2nnc3n2CCCC3)cc1 quantitativeresult=640
compound=CCC(=O)Nc1ccc(-n2cnc(C(=O)N3CCc4ccccc4C3)c2)nc1 quantitativeresult=721
compound=CN(C(=O)CCCOc1ccc2[nH]c(=O)ccc2c1)C1CCCCC1 quantitativeresult=840
compound=COc1ccc(-c2noc(-c3nc(C(C)C)no3)n2)cc1OC quantitativeresult=1050

1. CC1(C(=O)NCc2ccc(F)cc2)CCCN(C(=O)Nc2cccc(Cl)c2)C1 (centres undefined)
2. Cc1cccc(-c2nc(-c3ccc4c(c3)ncn4CCN3CCCC3)no2)c1
Qu. Between 1 and 2 , which one shows the smaller RP-LC retention time number? Answer with the label corresponding to your selection.
Ans. 2
(2: 676 s, 1: 967 s)

P. O=C(NCc1cccc(Br)c1)C1CCCN(C(=O)C2Sc3ccccc3NC2=O)C1 (centres undefined)
Q. COC(=O)c1sccc1NC(=O)N1CCc2c([nH]c3ccccc23)C1c1ccc(F)cc1 (centres undefined)
Qu. Lower RP-LC retention time: P or Q ? # reply format: chosen label
Ans. P
(P: 800 s, Q: 1300 s)

----------
- testSummary: gradient 5% acetonitrile 3 min, to 50% in 2 min, to 85% in 15 min, held 3 min, 100 µL/min
- measurementParameters: column: Zorbax Extend-C18 2.1 x 50 mm; eluents: water / acetonitrile, 0.1% formic acid
assayEndpoint: RP-LC retention time (s)

compound=CCc1cc(=O)n(CC(=O)NCc2ccc(F)cc2F)c(N2CCOCC2)n1 quantitativeresult=720
compound=COC(=O)C1=CN(c2ccc(Cl)cc2)c2ccc(F)cc2S1(=O)=O quantitativeresult=894
compound=CCOC(=O)c1csc(NC(=O)c2ccccc2[N+](=O)[O-])n1 quantitativeresult=721
compound="CC(Oc1ccccc1)C(=O)NCc1nnnn1-c1ccc(Cl)cc1 (stereo not given)" quantitativeresult=824
compound=CO[C@H]1C(=O)N(C(C)C)[C@H]1C1CCN(C(=O)C2CC2)CC1 quantitativeresult=657
